All values here come from paper PMC3326528.

Provide the reported Ka (app) of each item.
molecular target: UniProtKB Q70GK9; assay: ITC binding of ligands to apo FDAS; set-up: species or system Streptomyces cattleya; conditions: ITC, 25 °C, pH 7.8, apo FDAS
Sequence (Q70GK9 whole entry): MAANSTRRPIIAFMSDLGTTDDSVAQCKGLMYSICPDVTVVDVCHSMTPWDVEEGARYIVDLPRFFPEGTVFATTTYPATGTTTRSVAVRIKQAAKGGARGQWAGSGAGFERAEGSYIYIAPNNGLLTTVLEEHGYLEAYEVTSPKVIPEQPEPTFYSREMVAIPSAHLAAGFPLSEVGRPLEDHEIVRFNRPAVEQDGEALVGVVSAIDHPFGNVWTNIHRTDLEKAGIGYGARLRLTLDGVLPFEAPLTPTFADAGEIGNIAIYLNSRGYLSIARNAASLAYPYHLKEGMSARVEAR

Some entries whose results are on file:
Prompt: Name the recorded Ka (app) for C[S+](CC[C@H](N)C(=O)[O-])C[C@H]1O[C@@H](n2cnc3c(N)ncnc32)[C@H](O)[C@@H]1O (some centres unmarked) .
Completion: 8.0 ± 0.5 ×10^5 M^−1

Prompt: Name the recorded Ka (app) for `Nc1ncnc2c1ncn2[C@@H]1O[C@H](CSCC[C@H](N)C(=O)O)[C@@H](O)[C@H]1O` .
Completion: 302 ± 74 ×10^5 M^−1

Prompt: Name the recorded Ka (app) for `Nc1ncnc2c1ncn2[C@@H]1O[C@H](CO)C[C@H]1O` .
Completion: 4.5 ± 0.6 ×10^5 M^−1

Report Ka (app) for every entry below.
1. Nc1ncnc2c1ncn2[C@@H]1O[C@H](CF)[C@@H](O)[C@H]1O
2. Nc1ncnc2c1ncn2[C@@H]1O[C@H](CO)[C@@H](O)[C@H]1O

Completion:
45.5 ± 6.5 ×10^5 M^−1
12.2 ± 1.2 ×10^5 M^−1
